- Test system: T3SS-mediated cytotoxicity of translocated effector protein ExoU in CHO cells
- Test: Inhibition of P. aeruginosa ExoU-dependent CHO cell killing (translocation, LDH release)
- Type: cell-based
- Recorded Conditions: Pseudomonas aeruginosa, read-out: Avg. Translocation IC50
Documented IC50 across a set of compounds

IC50 for CC(Oc1ccc(Cl)cc1Cl)C(=O)NC1CCc2cc(F)ccc21 (stereo not drawn) ?
> 100 µM

And for COc1ccc(CNC(=O)C(C)Oc2ncc(Cl)cc2Cl)cc1OC (stereo not drawn) ?
> 100 µM

And for COc1cc(OC)c(OC)cc1CNC(=O)C(C)Oc1ccc(Cl)cc1Cl (stereo not drawn) ?
> 100 µM

And for COc1ccc(CNC(=O)C(C)Oc2ccc(Cl)cc2Cl)cc1OC (stereo not drawn) ?
> 100 µM

And for COc1ccc(CNC(=O)C(C)Oc2ccc(Cl)cc2Cl)cc1 (stereo not drawn) ?
12.5 µM

And for Cc1cccc(CNC(=O)C(C)Oc2ccc(Cl)cc2Cl)c1 (stereo not drawn) ?
8 µM

And for COc1ccc(CNC(=O)C(C)Oc2ncc(Cl)cc2Cl)cc1 (stereo not drawn) ?
> 100 µM

And for CC(Oc1ccc(Cl)cc1Cl)C(=O)NCc1ccc2c(c1)n(C)c(=O)n2C (stereo not drawn) ?
> 100 µM

And for CC(Oc1ccc(Cl)cc1Cl)C(=O)NCc1ccccc1Cl (stereo not drawn) ?
52.3 µM

----------
Documented CC50 at 3 days across a set of compounds
- Test: Determination of mammalian cytotoxicity (MTS)
- Assay type: cell-based
- Recorded Conditions: human

CC50 at 3 days for CC(Oc1ccc(Cl)cc1Cl)C(=O)NCc1ccc2[nH]c(CCO)cc2c1 (stereo not drawn) ?
> 100 µM

And for CC(Oc1ccc(Cl)cc1Cl)C(=O)NCc1ccc2[nH]cnc2c1 (stereo not drawn) ?
> 100 µM

And for COc1ccc(CNC(=O)C(C)Sc2ccc(Cl)cc2Cl)cc1 (stereo not drawn) ?
> 100 µM
